Target: T1, human CAPRIN-1 expressed on the surface of human cancer cells (human, UniProt Q14444 2-709)
T1 sequence: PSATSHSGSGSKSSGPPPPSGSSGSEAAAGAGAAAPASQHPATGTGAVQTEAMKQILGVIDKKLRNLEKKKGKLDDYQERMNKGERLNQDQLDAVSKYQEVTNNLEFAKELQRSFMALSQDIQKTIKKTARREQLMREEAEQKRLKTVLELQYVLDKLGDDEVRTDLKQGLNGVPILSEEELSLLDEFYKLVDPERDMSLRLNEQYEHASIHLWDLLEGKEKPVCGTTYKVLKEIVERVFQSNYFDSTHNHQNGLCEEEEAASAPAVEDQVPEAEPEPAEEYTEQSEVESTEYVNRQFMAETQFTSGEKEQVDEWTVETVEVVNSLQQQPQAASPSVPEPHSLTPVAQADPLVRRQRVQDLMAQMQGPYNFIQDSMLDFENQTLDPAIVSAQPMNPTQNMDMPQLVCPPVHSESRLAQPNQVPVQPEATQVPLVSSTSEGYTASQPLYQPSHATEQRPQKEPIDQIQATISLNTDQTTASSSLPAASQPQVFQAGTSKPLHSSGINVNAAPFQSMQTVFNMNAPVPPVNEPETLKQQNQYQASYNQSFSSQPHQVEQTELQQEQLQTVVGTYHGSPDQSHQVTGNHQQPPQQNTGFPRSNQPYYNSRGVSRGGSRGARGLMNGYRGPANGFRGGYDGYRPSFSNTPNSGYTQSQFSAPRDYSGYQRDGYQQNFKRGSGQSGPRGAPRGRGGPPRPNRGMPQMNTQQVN
Test: cell-based or functional assay
Observation type: ADCC cytotoxic activity (51Cr release) against all other cancer cell lines listed

- Binder: "human-chicken chimeric monoclonal antibody #3 (antibody, V domains shown) VH: AVTLDESGGGLQTPGGGLSLVCKGSGFTFSSFGMFWVRQAPGKGLEFVASISDNGRSTYYGSAVKGRATISRDDGQSTVRLQLNNLRAEDTGTYYCAKNAYVGRGCCFSYSIDAWGHGTEVIVS VL: ALTQPASVSVNPGETVKITCSGGGSSSDAYGWYQQKSPGSAPVTLIYNGSNRPSHIPSRFSGSTSGSTNTLTITGVQVEDEAIYFCGSTDTSTSVGIFGAGTTLTV"
  Reported measurement: "≥ 10%"
